# measurement_target: BACE2 (Rattus norvegicus)
# Construct: endogenous cellular BACE2 in the Ins1e rat cell line; endogenous in cells
# Sequence (Q6IE75 63-514): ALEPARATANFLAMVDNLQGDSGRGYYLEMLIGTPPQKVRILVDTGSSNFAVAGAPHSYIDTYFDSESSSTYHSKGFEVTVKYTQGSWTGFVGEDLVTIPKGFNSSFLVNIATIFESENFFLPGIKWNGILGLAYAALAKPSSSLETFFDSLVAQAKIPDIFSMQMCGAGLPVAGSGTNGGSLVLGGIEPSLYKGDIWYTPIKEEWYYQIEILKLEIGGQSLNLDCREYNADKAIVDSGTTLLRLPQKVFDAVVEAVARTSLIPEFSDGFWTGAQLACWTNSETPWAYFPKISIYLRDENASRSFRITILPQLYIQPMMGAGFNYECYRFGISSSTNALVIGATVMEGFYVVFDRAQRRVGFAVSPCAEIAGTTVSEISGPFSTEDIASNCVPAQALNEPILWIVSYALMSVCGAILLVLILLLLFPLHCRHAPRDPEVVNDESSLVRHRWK
# assay_notes: Assay for BACE inhibition by measuring cellular TMEM27 cleavage
# condition_context: INS-TMEM27 cells (INS1e-derived); shed TMEM27 by ELISA; read-out: BACE2 cell act. IC50
reported_endpoint: IC50 (nM)

Some entries whose results are on file:
Lab note: C[C@]1(c2cc(NC(=O)c3[nH]ncc3Cl)ccc2F)N=C(N)OCC1(F)F gave IC50 of 543

Lab note: C[C@]1(c2cc(NC(=O)c3ccc(F)cn3)ccc2F)N=C(N)OCC1(F)F gave IC50 of 56

Lab note: Cc1cnc(C(=O)Nc2ccc(F)c([C@@]3(C)N=C(N)OC(C)(C)C3(F)F)c2)cn1 gave IC50 of 3580

Lab note: C[C@]1(c2cc(NC(=O)c3ncc(Cl)cc3F)ccc2F)N=C(N)OCC1(F)F gave IC50 of 52

(1) CC1(C)OC(N)=N[C@](C)(c2cc(NC(=O)c3ncc(C#N)cc3Cl)ccc2F)C1(F)F
(2) C[C@]1(c2cc(NC(=O)C3(C(F)(F)F)CC3)ccc2F)N=C(N)OCC1(F)F
(3) C[C@]1(c2cc(NC(=O)c3ccc(OCC(F)(F)F)cn3)ccc2F)N=C(N)OCC1(F)F
query: List items by IC50 in falling order. Field: ranking. Enter the labels in the order requested.
result: 3, 2, 1

(P) C[C@]1(c2cc(NC(=O)c3ncc(C#N)cc3Cl)ccc2F)N=C(N)OCC1(F)F
(Q) CC1(C)OC(N)=N[C@](C)(c2cc(NC(=O)c3ncc(C(F)(F)F)cc3Cl)ccc2F)C1(F)F
(R) C[C@]1(c2cccc(NC(=O)c3ccc(Cl)cn3)c2)N=C(N)OCC1(F)F
(S) C[C@]1(c2cc(NC(=O)c3ncccc3Cl)ccc2F)N=C(N)OCC1(F)F
(T) C[C@]1(c2cc(NC(=O)C3CC3(F)F)ccc2F)N=C(N)OCC1(F)F (mixture of isomers)
query: List items by IC50 in falling order. Field: ranking. Enter the labels in the order requested.
result: Q, T, P, S, R

(I) C[C@]1(c2cc(NC(=O)c3ccc(Cl)cn3)ccc2F)N=C(N)OCC1(F)F
(II) C[C@]1(c2cc(NC(=O)c3ncccc3OCC(F)(F)F)ccc2F)N=C(N)OCC1(F)F
(III) C[C@]1(c2cc(NC(=O)c3ncc(Cl)cc3Cl)ccc2F)N=C(N)OCC1(F)F
query: Ascending sort, IC50. Field: ranking. Enter the labels in the order requested.
result: I, III, II

(1) CC1(C)OC(N)=N[C@](C)(c2cc(NC(=O)c3ccc(Cl)nn3)ccc2F)C1(F)F
(2) C[C@]1(c2cc(NC(=O)c3ncc(Cl)nc3Cl)ccc2F)N=C(N)OCC1(F)F
(3) C[C@]1(c2cc(NC(=O)c3ccc(C#N)cn3)ccc2F)N=C(N)OCC1(F)F
(4) Cn1cc(Cl)c(C(=O)Nc2ccc(F)c([C@@]3(C)N=C(N)OCC3(F)F)c2)n1
(5) Cc1cc(Cl)cnc1C(=O)Nc1ccc(F)c([C@@]2(C)N=C(N)OCC2(F)F)c1
query: List items by IC50 in falling order. Field: ranking. Enter the labels in the order requested.
result: 1, 2, 3, 5, 4
(1: 50700 nM, 2: 6740 nM, 3: 74 nM, 5: 24 nM, 4: 15 nM)

(A) CC1(C)OC(N)=N[C@](C)(c2cc(NC(=O)c3ncc(Cl)cc3F)ccc2F)C1(F)F
(B) CC1(C)OC(N)=N[C@](C)(c2cc(NC(=O)c3ccc(OCC(F)(F)F)cn3)ccc2F)C1(F)F
query: Given A and B , report the one with the higher recorded IC50. // output: label of the selected item
result: B
(B: 44300 nM, A: 70 nM)

Data origin, for the record: patent US8389513B2
